Source: patent US12319655B2

As shown below, each of these compounds has a reported pIC50 value.
- study.target: UniProt P15056
- Sequence (P15056 416-766): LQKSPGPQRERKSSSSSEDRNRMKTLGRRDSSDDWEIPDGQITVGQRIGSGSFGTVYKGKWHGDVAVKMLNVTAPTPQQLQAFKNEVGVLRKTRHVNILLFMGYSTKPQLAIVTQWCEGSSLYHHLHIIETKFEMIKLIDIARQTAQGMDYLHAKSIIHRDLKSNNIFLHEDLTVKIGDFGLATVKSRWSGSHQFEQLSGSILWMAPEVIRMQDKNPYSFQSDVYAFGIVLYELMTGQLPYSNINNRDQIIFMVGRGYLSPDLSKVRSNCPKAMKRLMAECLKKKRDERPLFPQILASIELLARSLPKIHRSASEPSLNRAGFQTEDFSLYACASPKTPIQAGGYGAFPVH
- assay.comment: Biochemical Assay for B-Raf (1)
- measurement.parameters: Table J, assay version (1); read-out: BRAF (1) IC50
- Protocol: Biochemical Assay for B-Raf (1) Activity of B-Raf kinase (SEQ. ID NO: 2) was determined spectroscopically using a coupled pyruvate kinase/lactate dehydrogenase assay that continuously monitors the ATP hydrolysis-dependent oxidation of NADH (e.g., Schindler et al., Science, 2000, 289, 1938-1942). […] Inhibition of B-Raf was measured by adding serial diluted test compound (final assay concentration of 1% DMSO). […] The reaction rate was calculated using the 4 to 5 h time frame. […]
pIC50: −log10 of the molar value.

// solved cases for pIC50 follow
- compound: "Cc1ccc(NC(=O)c2ccnc(C(F)(F)F)c2)cc1-c1ccnc(-c2ccnc(NC(=O)CN(C)C)c2)c1 [Example 17]"
  pIC50: "≥ 7.00"
- compound: "CNC(=O)c1cc(-c2cc(-c3cc(NC(=O)c4ccnc(C(C)(C)F)c4)ccc3C)cnc2C)ccn1 [Example 371]"
  pIC50: "6.30 to 7.00"
- compound: "Cc1ccc(NC(=O)c2ccnc(C(F)(F)F)c2)cc1-c1cncc(-c2ccnc(N)c2)n1 [Example 90]"
  pIC50: "6.30 to 7.00"

Continue with the next compound.
Q) # lookup: pIC50 of Cc1ncc(NC(=O)c2ccnc(C(F)(F)F)c2)cc1-c1cccc(-c2ccnc(NC(=O)C3CC3)c2)c1 [Example 70]
A) ≥ 7.00
